ASSAY TARGET: human MGL from HeLa cells (Homo sapiens (Human))
Sequence (Q99685 whole entry): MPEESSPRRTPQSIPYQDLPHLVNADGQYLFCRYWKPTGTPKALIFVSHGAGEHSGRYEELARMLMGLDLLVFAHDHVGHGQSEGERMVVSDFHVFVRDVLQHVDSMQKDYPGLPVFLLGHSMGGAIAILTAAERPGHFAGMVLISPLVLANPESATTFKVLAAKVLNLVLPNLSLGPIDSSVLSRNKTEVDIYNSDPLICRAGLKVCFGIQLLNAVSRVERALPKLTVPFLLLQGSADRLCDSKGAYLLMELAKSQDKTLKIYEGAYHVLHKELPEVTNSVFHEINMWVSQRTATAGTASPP
EXPERIMENT NOTES: MGL in vitro activity assay ([glycerol-1,3-3H]-oleoyl glycerol hydrolysis, activated carbon filtration)
CONDITIONS USED: 300 nM [Glycerol-1,3-3H]-oleoyl glycerol, one hour
Just a reminder that ties go to criterion not met: only IC50 strictly below 30 nM counts as criterion met.

Check out these entries, answers already filled in.
Q: Is it true that IC50 reported for CCc1ccc(OC2CCC3(CC2)CN(C(=O)[C@H]2C[C@@](C)(O)C2)C3)nc1C(F)F [Example 439] is less than 30 nM?
A: criterion met

Q: For C[C@]1(O)C[C@@H](C(=O)N2CC3(CC(Cc4ccc(OC(F)(F)F)cc4)C3)C2)C1 [Example 220] , is the recorded IC50 below the cut-off of 30 nM?
A: criterion met

Q: Criterion: IC50 strictly below 30 nM. Is it met by C[C@H](c1ccccc1)C1CC2(C1)CN(C(=O)[C@H]1C[C@@](C)(O)C1)C2 (stereo in doubt) [Example 311] ?
A: criterion not met

Q: For COc1cc(C)cc(C2CC3(CCN(C(=O)[C@H]4C[C@@](C)(O)C4)CC3)C2)c1 [Example 478] , is the recorded IC50 below the cut-off of 30 nM?
A: criterion not met

Q: Quick check: does Cc1ccc(OC2CCC3(CC2)CN(C(=O)[C@H]2C[C@@](C)(O)C2)C3)cc1C(F)(F)F [Example 259] have IC50 under 30 nM?
A: criterion met

Further cases:
Q: # strict comparison: is reported IC50 < 30 nM? input = C[C@]1(O)C[C@@H](C(=O)N2CC3(CCC(c4cc5n(n4)CCCC5)CC3)C2)C1 [Example 395]
A: criterion not met

Q: Please determine if CC(C)c1ccc(CC2CC3(C2)CN(C(=O)[C@H]2C[C@@](C)(O)C2)C3)cc1 [Example 185] is below 30 nM in terms of IC50.
A: criterion met

Q: Hello, is IC50 of the following compound strictly smaller than 30 nM? Cc1nc(O[C@@H]2CCC3(C[C@H]2C)CN(C(=O)[C@H]2C[C@@](C)(O)C2)C3)ccc1C(F)(F)F (stereo in doubt) [Example 445]
A: criterion not met

Q: Check if IC50 falls below 30 nM for C[C@H](c1ccc2cnn(C)c2c1)C1CC2(C1)CN(C(=O)[C@H]1C[C@@](C)(O)C1)C2 (stereo in doubt) [Example 315] .
A: criterion not met

Q: Is it true that IC50 reported for C[C@]1(O)C[C@@H](C(=O)N2CC3(CC[C@H](c4cccc(C5CC5)c4F)C3)C2)C1 (stereo in doubt) [Example 26] is less than 30 nM?
A: criterion met

Q: Hello, is IC50 of the following compound strictly smaller than 30 nM? C[C@]1(O)C[C@@H](C(=O)N2CC3(CCC(Oc4cc(C(F)(F)F)ccn4)CC3)C2)C1 [Example 418]
A: criterion not met

Q: Given the entry C[C@]1(O)C[C@@H](C(=O)N2CC3(CCC(c4ccc5c(c4)OCC5)C3)C2)C1 (mixture of isomers) [Example 323] , would its reported IC50 be below 30 nM?
A: criterion not met

Q: Quick check: IC50 of Cn1cnc(-c2cccc(C3CCC4(CC3)CN(C(=O)[C@H]3C[C@@](C)(O)C3)C4)c2)c1 [Example 345] under 30 nM?
A: criterion not met

Q: Hello, is IC50 of the following compound strictly smaller than 30 nM? C[C@]1(O)C[C@@H](C(=O)N2CC3(CCC(c4ccc(C5CC5)cc4)C3)C2)C1 (mixture of isomers) [Example 49]
A: criterion met

Q: Determine whether this compound shows IC50 lower than 30 nM (ties excluded): Cc1cc(F)ccc1CC1CC2(C1)CN(C(=O)[C@H]1C[C@@](C)(O)C1)C2 [Example 273]
A: criterion met

Q: Take the compound Cc1cc(C(F)F)cc(C2CCC3(C2)CN(C(=O)[C@H]2C[C@@](C)(O)C2)C3)c1 (mixture of isomers) [Example 94] and say whether its IC50 is less than 30 nM.
A: criterion not met

Q: Quick check: does C[C@]1(O)C[C@@H](C(=O)N2CC3(CC(Cc4cccc(C(F)(F)F)c4)C3)C2)C1 [Example 193] have IC50 under 30 nM?
A: criterion met

Q: is_below(IC50, 30 nM) for C[C@]1(O)C[C@@H](C(=O)N2CC3(CCC(c4ncn5ccccc45)C3)C2)C1 (mixture of isomers) [Example 329] ?
A: criterion not met

Q: is_below(IC50, 30 nM) for Cc1cccc(F)c1C1CCC2(CC1)CN(C(=O)[C@H]1C[C@@](C)(O)C1)C2 [Example 356] ?
A: criterion met

Q: Strictly below 30 nM: is that where IC50 of C[C@]1(O)C[C@@H](C(=O)N2CC3(CCC(c4cccc(C5(C(F)(F)F)CC5)n4)CC3)C2)C1 [Example 371] sits?
A: criterion met

Q: hey, is IC50 for CCOc1cc(C2CCC3(CC2)CN(C(=O)[C@H]2C[C@@](C)(O)C2)C3)cc(C(F)(F)F)c1 [Example 120] lower than 30 nM or not?
A: criterion not met

Q: API: query returns whether the compound falls strictly under 30 nM in IC50. Query: COc1cc(C2CCC3(CC2)CN(C(=O)[C@H]2C[C@@](C)(O)C2)C3)ccc1C1CC1 [Example 140]
A: criterion not met

Q: Please determine if COc1cc(Cl)cc(C2CCC3(C2)CN(C(=O)[C@H]2C[C@@](C)(O)C2)C3)c1 (mixture of isomers) [Example 86] is below 30 nM in terms of IC50.
A: criterion not met

Q: Determine whether this compound shows IC50 lower than 30 nM (ties excluded): Cn1cc(CC2CC3(C2)CN(C(=O)[C@H]2C[C@@](C)(O)C2)C3)c(C(F)(F)F)n1 [Example 225]
A: criterion not met

Q: Hello, I'm reviewing records and need to know if IC50 of C[C@]1(O)C[C@@H](C(=O)N2CC3(CCC(c4cc5ccccn5n4)CC3)C2)C1 [Example 388] is below 30 nM. Could you check?
A: criterion not met

Q: Is it true that IC50 reported for Cc1cc2cccnc2n1CC1CC2(C1)CN(C(=O)[C@H]1C[C@@](C)(O)C1)C2 [Example 287] is less than 30 nM?
A: criterion not met

Q: Given C[C@]1(O)C[C@@H](C(=O)N2CC3(CCC(c4cccc(C5CCC5)c4)C3)C2)C1 (mixture of isomers) [Example 64] , is recorded IC50 strictly lower than 30 nM?
A: criterion met

Q: Is IC50 of C[C@]1(O)C[C@@H](C(=O)N2CC3(CCC(c4cccc(-n5cccn5)c4)CC3)C2)C1 [Example 347] strictly below 30 nM?
A: criterion not met

Q: IC50 strictly < 30 nM for this compound? Cc1cc(C2CCC3(C2)CN(C(=O)[C@H]2C[C@@](C)(O)C2)C3)ccc1OC(F)(F)F (mixture of isomers) [Example 66]
A: criterion met

Q: Regarding Cn1ncc2cc(C3CCC4(CC3)CN(C(=O)[C@H]3C[C@@](C)(O)C3)C4)ccc21 [Example 122] , kindly confirm whether its IC50 is beneath 30 nM.
A: criterion not met
